# System: HCC-2998 colon
# METHOD_DESCRIPTION: NCI tumour cell line growth inhibition, 48 h
Reported GI50 by item:

                                   compound  reported_value
0        O=c1c2ccccc2n(C[C@H]2CO2)c2ccccc12         1.51 µM
1  C=CC(=O)N1CCN(c2nc(=O)n(-c3c(C)ccnc3C(C)C)c3nc(-c4c(O)cccc4F)c(F)cc23)[C@@H](C)C1         19.1 µM
2  CCc1c(C#N)c(S[C@@H](C(N)=O)c2ccccc2)nc(N(C)C)c1C#N        > 100 µM
3  O=C1CCCCCCCC/C=C\CC(c2ccco2)O1 (stereo unspecified)        > 100 µM
4  COc1cc(C)c(Cl)cc1C1=NN(c2ccc(S(N)(=O)=O)cc2)C(/C=C/c2ccccc2)C1 (stereo unspecified)         2.57 µM
5  CCCc1cc2c(=O)c(C(=O)OC)c[nH]c2cc1N(CC)CC         76.3 µM
6  COc1ccc(-n2nnnc2-c2c[nH]c3c(F)cc(F)cc23)cc1        > 100 µM
7      COc1ccc(/C=C/C(=O)c2ccc(SC)cc2)cc1OC         3.27 µM

Q: Reported GI50 for "O=C1C(=O)c2ccccc2C(O)=C1CC=C(Br)Br" : what is it?
Ans: 18.6 µM

Q: Also "Ic1ccccc1-c1ccccc1" , if possible.
Ans: > 100 µM

Q: Also "Fc1ccc2c(c1)c(-c1nc(-c3c[nH]c4ncccc34)cs1)cn2CCCN1CCCCC1" , if possible.
Ans: 1.7 µM
